MEASURED_TARGET: Bromodomain adjacent to zinc finger domain protein 2B (Homo sapiens, UniProt Q9UIF8)
Sequence (Q9UIF8 whole entry, the tested form may be a part): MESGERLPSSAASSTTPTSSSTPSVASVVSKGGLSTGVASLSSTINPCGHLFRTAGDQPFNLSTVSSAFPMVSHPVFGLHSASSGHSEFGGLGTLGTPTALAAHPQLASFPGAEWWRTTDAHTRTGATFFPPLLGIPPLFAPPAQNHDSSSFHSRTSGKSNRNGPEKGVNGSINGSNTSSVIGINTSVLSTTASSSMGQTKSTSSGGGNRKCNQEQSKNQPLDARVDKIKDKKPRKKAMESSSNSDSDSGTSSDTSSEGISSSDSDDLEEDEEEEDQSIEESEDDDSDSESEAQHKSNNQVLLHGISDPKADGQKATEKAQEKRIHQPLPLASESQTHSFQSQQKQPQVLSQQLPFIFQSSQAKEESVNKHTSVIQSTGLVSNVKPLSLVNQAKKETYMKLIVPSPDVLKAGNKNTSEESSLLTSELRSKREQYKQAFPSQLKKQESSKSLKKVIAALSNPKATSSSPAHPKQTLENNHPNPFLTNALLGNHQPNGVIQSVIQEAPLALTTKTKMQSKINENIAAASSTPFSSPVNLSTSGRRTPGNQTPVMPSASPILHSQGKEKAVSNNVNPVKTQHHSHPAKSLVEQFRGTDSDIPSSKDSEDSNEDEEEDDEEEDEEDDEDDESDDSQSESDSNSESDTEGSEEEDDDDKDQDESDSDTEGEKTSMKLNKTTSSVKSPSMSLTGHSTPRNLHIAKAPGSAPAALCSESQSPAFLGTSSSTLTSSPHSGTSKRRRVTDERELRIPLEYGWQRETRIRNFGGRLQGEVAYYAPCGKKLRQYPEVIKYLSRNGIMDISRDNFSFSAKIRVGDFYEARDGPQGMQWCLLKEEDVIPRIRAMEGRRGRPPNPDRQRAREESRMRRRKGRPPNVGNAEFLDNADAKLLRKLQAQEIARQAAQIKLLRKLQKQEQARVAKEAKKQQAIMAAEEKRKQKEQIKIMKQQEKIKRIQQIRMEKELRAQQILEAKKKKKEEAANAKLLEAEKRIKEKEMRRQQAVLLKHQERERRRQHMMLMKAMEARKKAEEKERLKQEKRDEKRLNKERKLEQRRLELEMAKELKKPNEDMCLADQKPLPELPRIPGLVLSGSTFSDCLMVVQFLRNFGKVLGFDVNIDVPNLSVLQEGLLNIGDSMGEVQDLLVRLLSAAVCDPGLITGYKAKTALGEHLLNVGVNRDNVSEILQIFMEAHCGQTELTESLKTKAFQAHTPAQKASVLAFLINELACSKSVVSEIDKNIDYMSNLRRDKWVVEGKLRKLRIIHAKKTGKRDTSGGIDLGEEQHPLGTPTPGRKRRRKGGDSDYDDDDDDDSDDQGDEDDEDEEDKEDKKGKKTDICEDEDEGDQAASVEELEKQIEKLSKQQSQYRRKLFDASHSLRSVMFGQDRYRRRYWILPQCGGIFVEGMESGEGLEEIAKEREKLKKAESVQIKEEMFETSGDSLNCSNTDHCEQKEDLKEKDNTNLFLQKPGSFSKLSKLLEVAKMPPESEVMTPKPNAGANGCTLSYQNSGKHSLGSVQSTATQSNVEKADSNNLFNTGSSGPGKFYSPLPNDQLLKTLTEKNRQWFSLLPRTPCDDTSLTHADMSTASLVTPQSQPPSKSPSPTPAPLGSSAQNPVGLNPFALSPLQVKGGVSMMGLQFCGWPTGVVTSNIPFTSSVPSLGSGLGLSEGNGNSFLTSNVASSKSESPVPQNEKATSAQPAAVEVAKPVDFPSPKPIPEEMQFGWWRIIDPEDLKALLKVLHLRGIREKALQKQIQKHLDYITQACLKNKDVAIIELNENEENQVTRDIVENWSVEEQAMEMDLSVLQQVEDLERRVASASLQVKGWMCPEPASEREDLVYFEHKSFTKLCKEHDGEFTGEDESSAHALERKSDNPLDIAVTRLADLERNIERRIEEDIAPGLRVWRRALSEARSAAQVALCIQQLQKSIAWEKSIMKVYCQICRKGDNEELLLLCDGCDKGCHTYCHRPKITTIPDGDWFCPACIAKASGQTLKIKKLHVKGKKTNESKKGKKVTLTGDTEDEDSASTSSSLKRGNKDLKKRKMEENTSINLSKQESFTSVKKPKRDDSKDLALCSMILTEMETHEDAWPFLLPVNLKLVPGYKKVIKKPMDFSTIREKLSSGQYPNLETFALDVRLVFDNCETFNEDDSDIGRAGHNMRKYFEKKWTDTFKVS
ASSAY_DETAILS: Inhibition of BAZ2B
MEASUREMENT_NAME: IC50 (mM)
Give your result in mM as a bare value.

Note down IC50 recorded for CN1CCCC1=O
34

###

MEASURED_TARGET: Bromodomain-containing protein 2 (Homo sapiens)
Sequence (P25440 whole entry, looked up): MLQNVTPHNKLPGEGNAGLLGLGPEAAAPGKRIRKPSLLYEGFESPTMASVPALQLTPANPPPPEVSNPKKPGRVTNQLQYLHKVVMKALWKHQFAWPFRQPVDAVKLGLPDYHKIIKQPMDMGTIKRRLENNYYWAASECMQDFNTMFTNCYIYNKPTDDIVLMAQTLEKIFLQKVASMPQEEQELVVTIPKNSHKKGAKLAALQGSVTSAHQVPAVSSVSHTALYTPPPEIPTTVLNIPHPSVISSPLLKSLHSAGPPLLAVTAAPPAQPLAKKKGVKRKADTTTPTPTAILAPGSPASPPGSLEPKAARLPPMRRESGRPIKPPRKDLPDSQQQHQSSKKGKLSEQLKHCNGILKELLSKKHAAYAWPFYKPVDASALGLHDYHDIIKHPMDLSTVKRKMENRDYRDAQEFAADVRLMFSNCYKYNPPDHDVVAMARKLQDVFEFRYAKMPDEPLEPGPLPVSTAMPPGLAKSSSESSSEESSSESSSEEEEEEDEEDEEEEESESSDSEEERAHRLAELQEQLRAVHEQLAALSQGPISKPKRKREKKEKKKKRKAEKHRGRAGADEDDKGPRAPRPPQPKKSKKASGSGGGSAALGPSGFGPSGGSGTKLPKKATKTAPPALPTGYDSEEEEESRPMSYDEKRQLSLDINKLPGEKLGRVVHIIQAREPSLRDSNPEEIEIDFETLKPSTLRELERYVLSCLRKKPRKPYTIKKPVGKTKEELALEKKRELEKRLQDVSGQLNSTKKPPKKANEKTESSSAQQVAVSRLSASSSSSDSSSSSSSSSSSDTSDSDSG
ASSAY_DETAILS: Binding affinity to second bromodomain of BRD2 assessed as change in melting temperature at 100 uM by differential scanning fluorimetry
Some compounds, each annotated with its measured ΔTm.
Give your result in °C as a bare value.

{"COMPOUND": "Cc1noc(C)c1-c1ccccc1", "ΔTm, °C": 2.1}
{"COMPOUND": "CCOc1cc(C(=O)O)cc(-c2c(C)noc2C)c1", "ΔTm, °C": 2.5}
{"COMPOUND": "CCOc1cccc(-c2c(C)noc2C)c1", "ΔTm, °C": 3.7}
{"COMPOUND": "CCOc1cc(-c2c(C)noc2C)cc(C(C)O)c1 (racemic)", "ΔTm, °C": 8.3}
{"COMPOUND": "Cc1noc(C)c1-c1cccc(C(C)O)c1 (racemic)", "ΔTm, °C": 5.6}

State measured ΔTm of the compound Cc1noc(C)c1-c1ccc2c(c1)CN(C)C(=O)N2 with Bromodomain-containing protein 2 (Homo sapiens).
6.2

State measured ΔTm of the compound CCOc1cc(C(C)=O)cc(-c2c(C)noc2C)c1 with Bromodomain-containing protein 2 (Homo sapiens).
5.3

State measured ΔTm of the compound CC(=O)c1cccc(-c2c(C)noc2C)c1 with Bromodomain-containing protein 2 (Homo sapiens).
2.6

State measured ΔTm of the compound CCOC(=O)c1cc(OCC)cc(-c2c(C)noc2C)c1 with Bromodomain-containing protein 2 (Homo sapiens).
3.3
